procedure_summary: qHTS of pediatric cancer cell lines to identify multiple opportunities for drug repurposing: Primary screen for Rh41 cells (AID 1347108); further: nearly all actives have a fitted effect of over 70% in size
measurement_setup: Rh41 rhabdomyosarcoma viability, CellTiter-Glo luminescence, 48 h; series mostly up to 46 µM
Records with an inconclusive call do not appear. The source made the active and inactive calls. The call rests on the fitted dose curve; in most records, active means well fitted cell-killing curve with a large enough effect; inconclusive means small, poorly fitted or top-dose-only effect; inactive means no such curve, though single readings can be large or run the other way.
The reply should name one outcome from active, inactive

Please review the entries below; each comes with its answer.
{"compound_structure_string": "CCOC(=O)C=C[C@H](C[C@@H]1CCNC1=O)NC(=O)[C@@H](CC(=O)[C@@H](NC(=O)c1cc(C)on1)C(C)C)Cc1ccc(F)cc1", "group_label": "inactive"}
{"compound_structure_string": "COc1cccc2c1C(=O)c1c(O)c3c(c(O)c1C2=O)C[C@@](O)(C(=O)CO)C[C@@H]3O[C@H]1C[C@H](N)[C@@H](O)[C@H](C)O1", "group_label": "active"}
{"compound_structure_string": "C=CCNc1c(O)cc2c(O)c1C[C@@H](C)C[C@H](OC)[C@@H](O)[C@@H](C)C=C(C)[C@H](OC(N)=O)[C@@H](OC)C=CC=C(C)C(=O)N2", "group_label": "active"}
{"compound_structure_string": "C#Cc1cccc(Nc2ncnc3cc(OCCOC)c(OCCO)cc23)c1", "group_label": "active"}
{"compound_structure_string": "CC[C@H]1OC(=O)[C@H](C)[C@@H](O[C@H]2C[C@@](C)(OC)[C@@H](O)[C@H](C)O2)[C@H](C)[C@@H](O[C@@H]2O[C@H](C)C[C@H](N(C)C)[C@@H]2O)[C@](C)(OC)C[C@@H](C)C(=O)[C@H](C)[C@@H](O)[C@]1(C)O", "group_label": "inactive"}
{"compound_structure_string": "O=S(=O)(O)CCSSCCS(=O)(=O)O", "group_label": "inactive"}
{"compound_structure_string": "FC(F)c1nc2ccccc2n1-c1nc(N2CCOCC2)nc(N2CCOCC2)n1", "group_label": "active"}
{"compound_structure_string": "COc1cc(C(=O)NC2CCN(C)CC2)ccc1Nc1ncc2c(n1)N(C1CCCC1)CCC(=O)N2C(C)C", "group_label": "active"}

**Query** How was Cc1cnc(Nc2ccc(N3CCN(C)CC3)cc2)nc1Nc1cccc(S(=O)(=O)NC(C)(C)C)c1 classified in this test?
**Result** active

**Query** How was Cn1cnc2c(F)c(Nc3ccc(Br)cc3F)c(C(=O)NOCCO)cc21 classified in this test?
**Result** inactive

**Query** How was COC1=C2C[C@@H](C)C[C@H](OC)[C@@H](O)[C@@H](C)C=C(C)[C@H](OC(N)=O)[C@@H](OC)C=CC=C(C)C(=O)NC(=CC1=O)C2=O classified in this test?
**Result** active

* * *

procedure_summary: Quantitative High-Throughput drug screen in 47 multiple myeloma cell lines against the NCATS MIPE library collection: JIM1_ECACC cell viability assay (AID 1918964; further: potency means the concentration at half of the fitted maximal effect)
measurement_setup: JIM1 myeloma viability, CellTiter-Glo ATP luminescence, 48 h; series mostly up to 45.8 µM
Inconclusive results are not listed. Active and inactive are the calls of the source. Calls come from the whole dose curve; as a rule, active = well fitted cell-killing curve with a large enough effect; inconclusive = small, poorly fitted or top-dose-only effect, or effect the other way; inactive = no such curve, though single readings can be large or run the other way.
endpoint: Potency

{"molecule": "CN(CC(=O)N(Cc1ccc(C2CCCCC2)cc1)c1ccc(C(=O)O)c(O)c1)S(=O)(=O)c1c(F)c(F)c(F)c(F)c1F", "Potency": "3.32 µM (active)"}
{"molecule": "Cc1cc(C(=O)NOCCO)c(Nc2ccc(I)cc2F)n(C)c1=O", "Potency": "inactive"}
{"molecule": "C[C@@H]1C(=O)O[C@H]2CC34[C@H]5C[C@@H](C(C)(C)C)C36[C@H](OC(=O)[C@@H]6O)O[C@@]4(C(=O)O5)[C@]21O (stereo not given in full)", "Potency": "inactive"}
{"molecule": "CC(Cc1ccc(O)c(O)c1)(NN)C(=O)O (stereo not given)", "Potency": "inactive"}
{"molecule": "Nc1ncn([C@@H]2O[C@H](CO)[C@@H](O)[C@@H]2O)c(=O)n1", "Potency": "1.48 µM (active)"}

Value of measured Potency for the entry CC(=O)OCC(=O)[C@@]1(O)CC[C@H]2[C@@H]3CCC4=CC(=O)CC[C@]4(C)[C@@H]3C(=O)C[C@@]21C : inactive

Value of measured Potency for the entry FC(F)(F)c1ccc(Nc2nc3ccc(Oc4ccnc(-c5ncc(C(F)(F)F)[nH]5)c4)cc3[nH]2)cc1 : 11.8 µM (active)

Value of measured Potency for the entry CCOC(=O)[C@@H](N)Cc1ccc(-c2cc(O[C@H](c3ccc(Cl)cc3-n3ccc(C)n3)C(F)(F)F)nc(N)n2)cc1 : 6.62 µM (active)

Value of measured Potency for the entry Cn1cnc(=N)c2[nH]cnc21 : 0.0935 µM (active)

Value of measured Potency for the entry COc1ccc2c(c1OC)C(=O)OC2[C@H]1c2c(cc3c(c2OC)OCO3)CCN1C (stereo not given in full) : 0.001 µM (active)

Value of measured Potency for the entry C=C1C(=CC=C2CCC[C@]3(C)[C@@H]([C@H](C)CCCC(C)(C)O)CC[C@@H]23)C[C@@H](O)C[C@@H]1O : 5.26 µM (active)

Value of measured Potency for the entry COC(=O)[C@@H]1CC2=CC(=O)CC[C@]2(C)[C@@]23O[C@@H]2C[C@@]2(C)[C@H](CC[C@@]24CCC(=O)O4)[C@@H]13 : inactive

Value of measured Potency for the entry N=c1ccn2c(n1)O[C@H]1[C@@H](O)[C@@H](CO)O[C@H]12 : inactive

Value of measured Potency for the entry Nc1nc2c(c(=O)[nH]1)N(C=O)[C@H](CNc1ccc(C(=O)N[C@@H](CCC(=O)O)C(=O)O)cc1)CN2 : inactive

Value of measured Potency for the entry COc1ccc(S(=O)(=O)Nc2cc(-c3c(O)ccc4ccccc34)c(O)c3ccccc23)cc1 : 3.32 µM (active)

Value of measured Potency for the entry N#Cc1cc(NC(=O)Nc2nnc(-c3ccncc3)s2)ccc1-c1cn[nH]c1 : inactive

Value of measured Potency for the entry CC(=CC(=O)Nc1ccccc1C(=O)O)c1ccc2ccccc2c1 : 0.59 µM (active)

* * *

procedure_summary: P-glycoprotein substrates identified in KB-8-5-11 adenocarcinoma cell line, qHTS therapeutic library screen (AID 1346987); further: nearly all actives have a fitted effect of over 65% in size
measurement_setup: KB-8-5-11 (P-gp overexpressing) viability, CellTiter-Glo, 72 h; series mostly up to 44.5 µM
Inconclusive results are not listed. Activity calls are given as the source filed them. Calls follow the shape of the dose curve; as a rule, active = well fitted inhibition curve with a large enough effect; inconclusive = small, poorly fitted or top-dose-only effect; inactive = flat fitted curve, though single readings scatter.
The reply should name one outcome from active, inactive

Please review the entries below; each comes with its answer.
{"compound": "CC[C@]12C=CCN3CC[C@@]4(c5cc([C@@]6(C(=O)OC)C[C@H]7C[C@@H](C(C)(F)F)CN(Cc8c6[nH]c6ccccc86)C7)c(OC)cc5N(C)[C@H]4[C@@](O)(C(=O)OC)[C@H]1OC(C)=O)[C@@H]32", "group_label": "active"}
{"compound": "CC(C)(O)Cn1c(NC(=O)c2ccc(-c3cn[nH]c3)s2)nc2cc(CN3CCOCC3)ccc21", "group_label": "active"}
{"compound": "CC(C(C)N1CC(=O)NC(=O)C1)N1CC(=O)NC(=O)C1 (stereo unspecified)", "group_label": "inactive"}
{"compound": "C[C@H](CCC(=O)O)[C@H]1CC[C@H]2[C@@H]3[C@H](O)C[C@@H]4C[C@H](O)CC[C@]4(C)[C@@H]3CC[C@]12C", "group_label": "inactive"}
{"compound": "Cc1noc(-c2ccc(CSCCC(=O)O)cc2)c1NC(=O)OC(C)c1ccccc1Cl (stereo unspecified)", "group_label": "inactive"}
{"compound": "O=C(C=Cc1ccc(CN(CCO)CCc2c[nH]c3ccccc23)cc1)NO", "group_label": "active"}
{"compound": "C=C(C)[C@@H]1CC[C@]2(C)CC[C@]3(C)[C@H](CC[C@@H]4[C@@]5(C)CC[C@H](O)C(C)(C)[C@H]5CC[C@]43C)[C@@H]12", "group_label": "inactive"}
{"compound": "Cc1nc(NC(=O)N2CCC[C@@H]2C(N)=O)sc1-c1ccnc(C(C)(C)C(F)(F)F)c1", "group_label": "active"}

**Query** How was CC[C@H]1OC(=O)[C@H](C)[C@@H](O[C@H]2C[C@@](C)(OC)[C@@H](O)[C@H](C)O2)[C@H](C)[C@@H](O[C@@H]2O[C@@H](C)C[C@H](N(C)C)[C@@H]2O)[C@](C)(O)C[C@@H](C)C(=O)[C@H](C)[C@@H](O)[C@]1(C)O classified in this test?
**Result** inactive

**Query** How was CCCCCCCN(CC)CCCC(O)c1ccc(NS(C)(=O)=O)cc1 (stereo unspecified) classified in this test?
**Result** inactive

**Query** How was C=C1C[C@@]2(O)O[C@@]3(C[C@H]2C(C)C)[C@H](C)CC[C@H]13 classified in this test?
**Result** inactive

* * *

procedure_summary: qHTS of pediatric cancer cell lines to identify multiple opportunities for drug repurposing: Primary screen for control Hh wild type fibroblast cells (AID 1347106); further: nearly all actives have a fitted effect of over 55% in size
measurement_setup: Hh wild-type fibroblast viability, CellTiter-Glo luminescence, 48 h; series mostly up to 46 µM
Inconclusive results are not listed. Active and inactive are the calls of the source. The call rests on the fitted dose curve; in most records, active means well fitted cell-killing curve with a large enough effect; inconclusive means small, poorly fitted or top-dose-only effect; inactive means flat fitted curve, though single readings scatter.
The reply should name one outcome from active, inactive

Please review the entries below; each comes with its answer.
{"molecule": "NC(=O)N1CCC(CC(=O)N2CCC([C@H]3c4ncc(Br)cc4CCc4cc(Cl)cc(Br)c43)CC2)CC1", "group_label": "inactive"}
{"molecule": "OC[C@H]1OC(O)C[C@@H](O)[C@H]1O (stereo not given in full)", "group_label": "inactive"}

**Query** How was CCc1ccc(C(=O)Nc2cc(CN3CCN(C)CC3)cc(C(F)(F)F)c2)cc1C#Cc1cnc2ccnn2c1 classified in this test?
**Result** inactive

**Query** How was CCN(CC)Cc1ccc2cc(COC(=O)Nc3ccc(C(=O)NO)cc3)ccc2c1 classified in this test?
**Result** active

**Query** How was O=C(Nc1nnc(-c2ccco2)o1)c1cc(-c2ccccc2)nc2ccccc12 classified in this test?
**Result** inactive
